- assay-details: in vitro
- particulars: human
readout-name: CC50 at 30 h post-transfection (µM)

molecule="CCC[C@@]1(CCc2ccccc2)CC(O)=C([C@H](CC)c2cccc(NS(=O)(=O)c3ccc(C(F)(F)F)cn3)c2)C(=O)O1 [Tipranavir]" measurement_unit=µM qualifier_symbol== reported_measurement=85.1
molecule="COc1cc(C)c2c(Oc3cccc(C(F)(F)F)c3)c(OC)cc(NC(C)CCCN)c2n1 (stereo not drawn) [Tafenoquine]" measurement_unit=µM qualifier_symbol== reported_measurement=2
molecule="COC(=O)N[C@H](C(=O)N[C@@H](Cc1ccccc1)[C@@H](O)CN(Cc1ccc(-c2ccccn2)cc1)NC(=O)[C@@H](NC(=O)OC)C(C)(C)C)C(C)(C)C [Atazanavir]" measurement_unit=µM qualifier_symbol=> reported_measurement=100
molecule="COc1ccc2c(O[C@@H]3C[C@H]4C(=O)N[C@]5(C(=O)NS(=O)(=O)C6CC6)C[C@H]5/C=C\\CCCCN(C)C(=O)[C@@H]4C3)cc(-c3nc(C(C)C)cs3)nc2c1C [Simeprevir]" measurement_unit=µM qualifier_symbol== reported_measurement=19.6
molecule="CC(C)(C)NC(=O)N[C@H](C(=O)N1C[C@H]2[C@@H]([C@H]1C(=O)NC(CC1CCC1)C(=O)C(N)=O)C2(C)C)C(C)(C)C (stereo partly drawn) [Boceprevir]" measurement_unit=µM qualifier_symbol=> reported_measurement=100
molecule="CC(C)CN(C[C@@H](O)[C@H](Cc1ccccc1)NC(=O)O[C@H]1CCOC1)S(=O)(=O)c1ccc(N)cc1 [Amprenavir]" measurement_unit=µM qualifier_symbol=> reported_measurement=100
